Assayed target: T1, occludin (UniProt Q16625 1-522)
T1 chain: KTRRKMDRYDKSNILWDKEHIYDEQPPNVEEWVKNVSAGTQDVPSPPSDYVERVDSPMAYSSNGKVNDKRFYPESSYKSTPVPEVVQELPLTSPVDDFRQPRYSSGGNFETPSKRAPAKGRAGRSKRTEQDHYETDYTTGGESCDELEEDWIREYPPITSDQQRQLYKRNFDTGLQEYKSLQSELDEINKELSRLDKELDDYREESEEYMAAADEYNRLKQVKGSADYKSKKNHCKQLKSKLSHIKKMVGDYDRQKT
Assay overview: MST; occludin labelled by RED-Tris-NTA on its His tag, fixed at 50 nM; L-R5 in serial dilution 0-25000 μM; Tris buffer pH 7.4; hydrophilic capillaries; 20%, 40% and 80% MST power
Condition info: both partners purified
Ends that are not written are not given here. * marks the point of attachment. Myristoyl = CCCCCCCCCCCCCC(=O)*
Measured parameter: Kd (µM)
Give bare numbers, in µM.

Prompt line: Provide Kd value for the following binder: Myristoyl-ARRWR (also called L-R5 peptide; source: synthetic peptide, obtained from Bachem AG) [L-R5 (myr-ARRWR), myristoylated pentapeptide]
Response line: 606
